All values here come from patent US7989188B2.

# Experiment notes: Acute intravenous (IV) toxicity, single injection, MTD and LD50
# Test context: female, BALB/c, mouse, in vivo, iv
# Description: Purpose: To measure the potential acute intravenous (IV) toxicity of Asp(5-FU) in mice, estimated by Maximum Tolerated Dose (MTD) and 50% Lethal Dose (LD50). Method: The potential acute intravenous (IV) toxicity of the Asp(5-FU) was assessed in groups of BALB/c female mice of 5 mice per group, in order to establish appropriate MTD levels towards a projected series of various anti-tumorigenic efficacy trials. […]
Measured quantity: MTD
Answer with the figure and its unit, nothing else.

Record NC(CC(=O)n1cc(F)c(=O)[nH]c1=O)C(=O)O (stereo not shown) [Asp(5-FU)] . Reported MTD: 160 mg/kg

* * *

# Experiment notes: Acute intravenous (IV) toxicity, single injection, MTD and LD50
# Test context: female, BALB/c, mouse, in vivo, iv
Measured quantity: LD50 (mg/kg)
Answer with a number only, understood to be in mg/kg.

Record NC(CC(=O)n1cc(F)c(=O)[nH]c1=O)C(=O)O (stereo not shown) . Reported LD50: 200
